What pEC50 was measured for each of the following?
- TARGET OR SYSTEM: RIPK1 (recombinant GST-RIPK1 kinase domain, residues 1-327) (Homo sapiens (Human))
- EXPERIMENT SUMMARY: RIPK1-ADP-Glo Enzymatic Assay
- Format: biochemical
- MEASUREMENT SETUP: ADP-Glo; 25 nM GST-RIPK1, 300 μM ATP; assay lower limit ~25 nM; read-out: RIPK1 V0 Ec50
The quantity pEC50 is defined as the negative base-10 logarithm of the molar concentration.

Request: Field request: pEC50 | item: `CCc1cc(C(=O)N2CCC3(CC2)O[C@@H]2CC[C@@H](c4cc(F)cc(F)c4)N2C3=O)no1`
Response: 7.19

Request: Tell me the measured pEC50 of `N#Cc1cccc(S(=O)(=O)N2CCC3(CC2)O[C@@H]2CC[C@@H](c4cc(F)cc(F)c4)N2C3=O)c1` , please.
Response: 6.67

Request: I have this compound here, `Cc1ccccc1[C@@H]1CC[C@H]2OC3(CCN(C(=O)c4ccccc4)CC3)C(=O)N21` , and I need its recorded pEC50.
Response: 6.34

Request: Query (compound): `O=C1N2[C@@H](CC[C@H]2c2cccc(F)c2)OC12CCN(c1cc(C(F)F)ncn1)CC2` ; field requested: pEC50
Response: 7.16

Request: Param item = `O=C(c1cnc2cccnn12)N1CCC2(CC1)O[C@@H]1CC[C@@H](c3cc(F)cc(F)c3)N1C2=O` ; retrieve measured pEC50.
Response: 6.56

====

- TARGET OR SYSTEM: RIPK1 (recombinant GST-RIPK1 kinase domain, residues 1-327) (Homo sapiens (Human), UniProt Q13546)
- Sequence (Q13546 1-327): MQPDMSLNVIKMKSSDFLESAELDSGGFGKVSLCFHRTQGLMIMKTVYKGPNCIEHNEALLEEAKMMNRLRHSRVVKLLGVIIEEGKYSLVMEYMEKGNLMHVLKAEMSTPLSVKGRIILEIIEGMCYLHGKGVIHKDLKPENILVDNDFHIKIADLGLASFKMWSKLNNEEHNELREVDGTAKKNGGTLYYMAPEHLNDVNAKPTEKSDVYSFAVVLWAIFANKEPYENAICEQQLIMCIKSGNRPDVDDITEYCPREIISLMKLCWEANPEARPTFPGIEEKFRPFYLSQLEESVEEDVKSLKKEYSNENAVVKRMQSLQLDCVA
- EXPERIMENT SUMMARY: RIPK1-ADP-Glo Enzymatic Assay
- Format: biochemical
- MEASUREMENT SETUP: ADP-Glo; 25 nM GST-RIPK1, 300 μM ATP; assay lower limit ~25 nM; read-out: RIPK1 V0 Ec50
Counter-ions that a name gives are not always drawn.
For each entry below, report its log10 EC50 value.
Friendly reminder: values = log10 of EC50, unit nM.

Request: Request the reported log10 EC50 associated with `CC1(C)Cc2cccc(C(=O)N3CCC4(CC3)O[C@@H]3CC[C@@H](c5cc(F)cc(F)c5)N3C4=O)c2O1`
Response: 2.36

Request: Look at this molecule and give its reported log10 EC50. `Cc1ccccc1S(=O)(=O)N1CCC2(CC1)O[C@@H]1CC[C@@H](c3cc(F)cc(F)c3)N1C2=O`
Response: 2.84

Request: Field request: log10 EC50 | item: CC1CN(c2cccc3ncnn23)CCC12O[C@@H]1CC[C@@H](c3cc(F)cc(F)c3)N1C2=O (stereo partly drawn) [Example 4.265]
Response: 1.45

Request: Given the molecule CC(F)c1cc(N2CCC3(CC2)O[C@@H]2CC[C@@H](c4ccccc4)N2C3=O)ncn1 (stereo partly drawn) [Example 4.214] , what is its reported log10 EC50?
Response: 2.11

Request: // log10 EC50 lookup, key: O=C1N2[C@@H](CC[C@H]2c2cc(F)cc(F)c2)OC12CCN(c1nnc3cccnn13)CC2 [Example 13.9, TFA salt]
Response: 2.53

Request: Field request: log10 EC50 | item: `Cc1nocc1C(=O)N1CCC2(CC1)O[C@@H]1CC[C@@H](c3cc(F)cc(F)c3)N1C2=O`
Response: 2.28

Request: log10 EC50 for `O=C(c1cnc(C(F)F)cn1)N1CCC2(CC1)O[C@@H]1CC[C@@H](c3cc(F)cc(F)c3)N1C2=O` ?
Response: 2.61

Request: Requested field: log10 EC50. Item: `O=C1N2[C@@H](CC[C@H]2c2ccccc2)OC12CCN(c1nc(-c3ccccn3)cs1)CC2`
Response: 1.79

Request: I have this molecule here, O=C1N2[C@@H](CC[C@H]2c2cc(F)cc(F)c2)OC12CCN(c1ccc(Cl)c3nccn13)CC2 [Example 13.16, TFA salt] , and I need its recorded log10 EC50.
Response: 1.51

Request: Which log10 EC50 value is on record for `O=C(c1cccc(F)c1)N1CCC2(CC1)O[C@@H]1CC[C@@H](c3ccc(F)cc3)N1C2=O` ?
Response: 2.08

Request: What does the record list as log10 EC50 for `N#Cc1cc(N2CCC3(CC2)O[C@@H]2CC[C@@H](c4cccc(F)c4)N2C3=O)ncn1` ?
Response: 1.55
